Value source: patent US4771050A

Consider the following compounds and their measured inhibition at 1 µM readings.
SYSTEM_UNDER_TEST: aldose reductase from human placenta (Homo sapiens)
Construct: Partially purified aldose reductase from human placenta; from tissue; host or cells: human placenta
ASSAY_PROTOCOL: Aldose reductase inhibition (in vitro study)
Type: biochemical
EXPERIMENTAL_SETUP: 10^-6 M
Please give a number only; it is taken to be in %.

COMPOUND | UNITS_OF_MEASURE | inhibition at 1 µM
CC(C)C1Oc2ccccc2N(CC(=O)O)C1=S (stereo not shown) | % | 46.7
CC(C)C1Oc2ccc(F)cc2N(CC(=O)O)C1=S (stereo not shown) | % | 43.9
CC(C)C1Oc2c(C3CCCCC3)cccc2N(CC(=O)O)C1=S (stereo not shown) | % | 38.4
CCOc1cccc2c1OC(C(C)C)C(=S)N2CC(=O)O (stereo not shown) | % | 43
O=C(O)CN1C(=S)COc2ccc(F)cc21 [Control A, reference compound] | % | 50.8

Would you kindly share the measured inhibition at 1 µM for CC(C)c1cccc2c1OC(C(C)C)C(=S)N2CC(=O)O (stereo not shown) ? 50.2

Would you kindly share the measured inhibition at 1 µM for CC(C)C1Oc2c(F)cccc2N(CC(=O)O)C1=S (stereo not shown) ? 45.6

Would you kindly share the measured inhibition at 1 µM for CC(C)C1Oc2c(Cl)cccc2N(CC(=O)O)C1=S (stereo not shown) ? 48.9

Would you kindly share the measured inhibition at 1 µM for CC(C)C1Oc2c(cccc2C(C)(C)C)N(CC(=O)O)C1=S (stereo not shown) ? 39.3

Would you kindly share the measured inhibition at 1 µM for Cc1cccc2c1OC(C(C)C)C(=S)N2CC(=O)O (stereo not shown) ? 48.2

Would you kindly share the measured inhibition at 1 µM for CCC(C)C1Sc2ccccc2N(CC(=O)O)C1=S (stereo not shown) ? 47.1

Would you kindly share the measured inhibition at 1 µM for CC(C)C1Oc2cc(F)ccc2N(CC(=O)O)C1=S (stereo not shown) ? 45.7

Would you kindly share the measured inhibition at 1 µM for O=C(O)CN1C(=S)CSc2ccccc21 [Control B, reference compound] ? 43.1
